Test: growth inhibitors of H69AR lung tumor, primary screen, human, duplicate replicates (AID 580);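 further: 100% = mean luminescence of untreated wells and 0% = no signal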
Conditions: H69AR lung tumor cells viability, ATP luminescence, 72 h; at 10 µM; stronger effect = lower value
QUANTITY_KIND: viability (%)
Answers are plain numbers, in %.

COMPOUND	ASSAY_RESULT
CCOC(=O)C1C2C=CC3(CN(c4cccc(Cl)c4)C(=O)C13)O2 (stereo unspecified)	97.5
CCOC(=O)N1CCN(C(=O)C2CC(=O)N(Cc3ccc(OC)cc3)C2)CC1 (stereo unspecified)	93.3
CCOC(=O)C1=C(c2ccccc2)N2CCN=C2S1	94.8
NS(=O)(=O)c1cc2c(cc1C(F)(F)F)NC(Cc1ccccc1)NS2(=O)=O (stereo unspecified)	88.9
COc1ccccc1CNC(=O)N[C@@H](Cc1ccccc1)C(=O)O	93.2

Shifting focus to the compound that follows.
[Q] What value of viability has been recorded for this entry: Cc1ccc(CN2C(=O)CCC2C(=O)NCC2CCCO2)cc1 (stereo unspecified)
[A] 103

* * *

Experiment: reversal of MRP1-mediated doxorubicin resistance, pilot screen, H69AR cells, doxorubicin co-treatment (AID 601)
Details: H69AR cells + 2 uM doxorubicin, CellTiter-Glo, 72 h; at 10 µM; stronger effect = higher value
QUANTITY_KIND: differential viability (reversal) (%)
Give bare numbers, in %.

Your task in this section: give differential viability (reversal) for each listed record.
1. CCOC(=O)c1c(NC(=O)CSc2nnc(-c3cccnc3)o2)sc(C)c1C
2. O=C(c1cccc2ccccc12)N1CCC(N2CCN(c3ccccc3)CC2)CC1

[A]
14
-4

* * *

For each entry below, report its viability value.
Assay: SK-BR-3 cell growth inhibitors, pilot screen, 24 h, human (AID 572);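 further: compound exposure lasted between 18 and 24 h rather than exactly 24 h; 100% = carrier-treated control wells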
Details: SK-BR-3 viability, CellTiter-Glo luminescence, at 10 µM, stronger effect = lower value
Give bare numbers, in %.

CHEM_SMILES	viability [%]
Cn1c(=N)c(S(=O)(=O)c2ccc(Cl)cc2)cc2c(=O)n3ccccc3nc21	110
CC1(C)O[C@@H]2C[C@H]3[C@@H]4CCC5=CC(=O)C=C[C@]5(C)[C@@]4(F)[C@@H](O)C[C@]3(C)[C@]2(C(=O)CO)O1	90.5

Shifting focus to the compound that follows.
[Q] What value of viability has been recorded for this entry: N#Cc1c(/N=C/c2ccco2)sc2c1CCC2
[A] 99

* * *

Assay: reversal of MRP1-mediated doxorubicin resistance, pilot screen, H69AR cells, doxorubicin co-treatment (AID 601)
Conditions: H69AR cells, CellTiter-Glo, 72 h; compound alone cytotoxicity; at 10 µM
# label = class 1 if viability < 90% else class 0

COMPOUND	GROUP_LABEL
COc1cc(S(=O)(=O)NC2CCCCC2)ccc1Cl	class 0
CC(n1cnnn1)C12CC3CC(CC(C3)C1)C2 (stereo unspecified)	class 0
O=C(CSc1nnc(-c2ccccc2)c(-c2ccccc2)n1)N1CCOCC1	class 1
COc1cc(C(=O)OCC(=O)N(C)Cc2ccccc2)cc(OC)c1OC	class 0
CC1(C)Cc2noc(N)c2C(C)(C)N1OC(=O)c1ccccc1	class 0

Please find the next compound below.
[Q] Problem: For the compound CCOC(=O)N1CCN(C(=O)CCc2c(C)nc3c(c(C)nn3-c3ccc(C)c(C)c3)c2C)CC1 , is viability under 90%?
[A] class 1

* * *

For each entry below, report its viability value.
Test: HUVEC growth inhibition – cell-based, human, primary screen (AID 575);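 further: 100% = median of untreated cell wells with 0.1% DMSO on each plate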
Details: HUVEC proliferation, CellTiter-Glo luminescence, 72 h; at 10 µM; stronger effect = lower value
Numbers only, in %.

COMPOUND	ASSAY_RESULT
O=C(NCc1ccccc1)C1CCCN1S(=O)(=O)c1cccc2cccnc12 (centres undefined)	93
CC(NO)C(C)(C)NO (centres undefined)	92.3
COc1cccc(/C=N/n2c(C)nc3ccccc32)c1OC	52.1

Your task in this section: give viability for each listed record.
1. CC(C)CCNC(=O)CCNS(=O)(=O)c1ccc(Cl)cc1
2. COc1ccc(OC)c(NC(=O)CCN2CCN(c3ccccc3F)CC2)c1
3. Cc1ccc(-c2cc(C(=O)O)n[nH]2)o1

[A]
1. 99.7
2. 90.8
3. 98.7

* * *

Experiment: RAM signaling pathway blockade in yeast – S. cerevisiae, Pdr1DBD-CYC8 efflux-inhibited sensitized strain, primary screen (AID 1298);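 further: 0% = DMSO untreated cells without growth and 100% = 10 µM 1-NA-PP1 full growth; higher means more yeast growth rescued from 5-FOA killing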
Conditions: S. cerevisiae cbk1-as DSE1-URA3 strain, 5-FOA growth OD615, 2 d; at 50 µM; stronger effect = higher value
Calls of active or inactive are those of the source.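 Rule for the calls: active = RAM network inhibition above 8.4% in each of two replicates, 3 SD over the compound average; inconclusive = above 8.4% inhibition in only one replicate; inactive = 8.4% inhibition or less in each replicate.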
For each entry below, report its RAM network inhibition value.

Recorded results for 2 compounds are shown here.
CHEM_SMILES	RAM network inhibition
O=C(Cn1cnc2c(cnn2-c2ccccc2)c1=O)N1CCOCC1	1.17% (inactive)
CCCCOc1ccc(/C(N)=N/O)cc1	1.83% (inactive)

Shifting focus to the compound that follows.
[Q] What value of RAM network inhibition has been recorded for this entry: Cc1ccccc1Cn1cc(S(=O)(=O)CC(=O)Nc2nccs2)c2ccccc21
[A] 8.89% (inactive)

* * *

Assay: inhibitors of the yeast RAM network, pilot screen, dse1pr::URA3 reporter, 5-FOA selection (AID 869);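 further: 0% = DMSO wells with no growth and 100% = 10 µM 1-NA-PP1 with full growth; RAM network block rescues cells from 5-FOA so hits raise OD615 growth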
Conditions: S. cerevisiae dse1pr::URA3 5-FOA growth, OD615, 2 d; at 10 µM; stronger effect = higher value; strain carries analog-sensitive mutant Cbk1 kinase
QUANTITY_KIND: inhibition (%)
Answers are plain numbers, in %.

COMPOUND	ASSAY_RESULT
CC(=O)NC1(NC(C)=O)CCN(C)C(c2ccccc2)C1C (centres undefined)	1.46
Cc1cc(NS(=O)(=O)c2ccc(NC(=O)CCCC(=O)O)cc2)nc(C)n1	-0.135
Cc1ccccc1CSc1nnc(Cn2c(=O)sc3ccccc32)n1C	1.81

Shifting focus to the compound that follows.
[Q] What value of inhibition has been recorded for this entry: COC(=O)CCC(=O)Nc1nc(-c2ccccc2)cs1
[A] 0.475

* * *

Assay: reversal of MRP1-mediated doxorubicin resistance, pilot screen, H69AR cells, doxorubicin co-treatment (AID 601)
Conditions: H69AR cells + 2 uM doxorubicin, CellTiter-Glo, 72 h; at 10 µM; stronger effect = higher value
QUANTITY_KIND: differential viability (reversal) (%)
One number for each entry, in %.

Recorded results for 5 compounds are shown here.
COMPOUND	READING_UNIT	ASSAY_RESULT
O=C(Nc1ccccc1C(=O)N1CCCCCC1)c1cccc(S(=O)(=O)N2CCOCC2)c1	%	-7.13
CCOC(=O)N1CCN(S(=O)(=O)c2cc(C)c(C)cc2C)CC1	%	6.04
O=C(NCC(=O)N(c1cnc2ccccc2c1)C(C(=O)NC1CCCC1)c1ccncc1)c1ccco1 (centres undefined)	%	-3.65
O=C(O)c1cc(-c2ccccc2Cl)n[nH]1	%	1.79
COc1cc2c(cc1OC)-c1cc(Nc3ccc4c(c3)OCCO4)nc(=O)n1CC2	%	-6.86

Your task in this section: give differential viability (reversal) for each listed record.
1. CCSc1nncn1/N=C/c1ccc(OC)c(OC)c1
2. OCc1cn(-c2ccccc2)nc1-c1ccc2c(c1)OCCO2
3. CS(=O)(=O)N(CC(=O)O)c1cccc(Cl)c1
4. Cc1sc(NC(=O)CSc2nnc(COc3ccccc3)n2C)c(C#N)c1C

[A]
1. -3.4
2. -4.38
3. -0.88
4. -3.05

* * *

Test: SK-BR-3 cell growth inhibitors, pilot screen, 24 h, human (AID 572);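 further: compound exposure lasted between 18 and 24 h rather than exactly 24 h; 100% = carrier-treated control wells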
Conditions: SK-BR-3 viability, CellTiter-Glo luminescence, at 10 µM, stronger effect = lower value
QUANTITY_KIND: viability (%)
Give bare numbers, in %.

COMPOUND	READING_UNIT	ASSAY_RESULT
COc1ccc(C)cc1NC(=O)COCC(=O)O	%	106
CCCS(=O)(=O)N1CCC(C(=O)N2CCCC2)CC1	%	112
Cn1c(=O)c2c(nc(SCCCO)n2Cc2ccccc2Cl)n(C)c1=O	%	80.5
Cc1c(C(=O)O)sc2nc3n(c(=O)c12)CCC(C)CC3 (configuration not stated)	%	93
COc1cccc(/C=N/n2c(C)nc3ccccc32)c1OC	%	91

Your task in this section: give viability for each listed record.
1. CCOc1cccc(-c2nnc3sc(COc4ccc(OC)cc4)nn23)c1
2. Cn1c(=O)[nH]c(=O)c2c1nc(N1CCNCC1)n2CCOc1ccccc1
3. O=C1c2ccccc2C(O)(Cc2ccccc2)N1Cc1ccco1 (configuration not stated)
4. CCCCc1c(O)nc(SCCN(C)C)n(-c2ccccc2)c1=O

[A]
72.5
79.5
88.5
93.5

Your task in this section: give viability for each listed record.
1. CCC(=O)N1CCc2cc(Br)cc(S(=O)(=O)N3CCCCCC3)c21
2. Cc1cc(C)n(S(=O)(=O)Cc2ccccc2)n1
3. COc1ccc(N2CCC(CNS(=O)(=O)c3cccc(C(F)(F)F)c3)C2)cc1 (configuration not stated)

[A]
88.5
102
98

Your task in this section: give viability for each listed record.
1. CCOc1ccccc1C(=O)NC(C)c1ccc2c(c1)OCO2 (configuration not stated)
2. CN1CCCN=C1COC(=O)C(O)(c1ccccc1)C1CCCCC1 (configuration not stated)
3. O=C1CC(c2cccs2)CC2=C1C(c1ccccc1)n1ncnc1N2 (configuration not stated)
4. CCc1cc(=O)oc2c(CN3CCN(C)CC3)c(O)c(Cl)cc12
5. Cc1nnc2n(-c3ccccc3)c(=O)c3c4c(sc3n12)CCCC4

[A]
1. 104
2. 95
3. 105
4. 107
5. 79.5

Your task in this section: give viability for each listed record.
1. COc1ccc(-c2cn3c(C)c(C(=O)Nc4cc(NC(C)=O)ccc4OC)sc3n2)cc1
2. Cc1c(NC(=O)C(C)OC(=O)COc2cccc3c2OC(C)(C)C3)c(=O)n(-c2ccccc2)n1C (configuration not stated)
3. O=C(COc1nnc2ccccn12)N1CCN(S(=O)(=O)c2ccccc2)CC1
4. O=C(O)c1cccc(S(=O)(=O)N2CCOCC2)c1
5. O=C(CSc1nnnn1-c1ccc(Cl)cc1)NC(=O)Nc1ccc2c(c1)OCCO2
6. O=S(=O)(NCc1ccco1)c1cccc2cccnc12
7. C/C(NC1CCCC1)=C(/C#N)C(N)=O
8. Cc1ccccc1NC(=O)Cc1nnc(SCC(=O)N2CCN(c3ccccc3)CC2)n1C

[A]
[92, 112, 107, 118, 104, 105, 108, 110]

Your task in this section: give viability for each listed record.
1. CS(=O)(=O)N1CCN(c2ccccc2NC(=O)c2ccc(-c3ccc(Cl)cc3Cl)o2)CC1
2. CC(=O)NCCOc1cccc(OCCNC(C)=O)c1

[A]
[78.5, 94.5]

Your task in this section: give viability for each listed record.
1. COc1ccc2c(c1)C1(C)CC(C)(C)N2C(=O)N1c1ccccc1 (configuration not stated)
2. C=CCn1c(SCC(=O)c2ccc(OC)cc2)nnc1C(C)NC(=O)c1cccs1 (configuration not stated)
3. COc1cc(Br)cc(CN2CCN(C/C=C/c3ccccc3)CC2)c1O
4. Cc1cc(C)n(-c2nnc(C)n2/N=C/c2ccco2)n1
5. CC(C)N(C(=O)COC(=O)c1ccc(O)cc1)C(C)C

[A]
101
102
81
108
96.5

Your task in this section: give viability for each listed record.
1. Cc1ccc(CN2C(=O)CCC2C(=O)NCC2CCCO2)cc1 (configuration not stated)
2. COc1ccc(C)cc1S(=O)(=O)N(CC(=O)O)c1ccccc1
3. CCC(NC(C)C)C(O)c1ccc(O)c(O)c1 (configuration not stated)
4. O=C(Cn1ncc2c(=O)oc3ccccc3c21)NCC1CCCO1 (configuration not stated)
5. O=C(Nc1cccc(NC(=O)c2cccnc2)c1)c1cccnc1

[A]
[90, 118, 87.5, 104, 89]

Your task in this section: give viability for each listed record.
1. C=Cn1nc(C)c2ccccc2c1=O
2. CCOC(=O)c1c(C)oc2ccc(OCC(=O)N(CC)CC)cc12
3. Cc1ccc(Cn2c(C(=O)NCCCN3CCOCC3)cc3sccc32)cc1
4. Cc1nnc(N2C(=O)c3oc4ccccc4c(=O)c3C2c2ccco2)s1 (configuration not stated)
5. Cc1sc2c(c1C)CN(C1CC(C)(C)NC(C)(C)C1)CN2C(=O)c1ccco1

[A]
1. 112
2. 85.5
3. 84.5
4. 93
5. 86.5
